Recorded values, source PubChem BioAssay (NCI).

# Test system: HOP-62 NSCLC
# Experiment: NCI tumour cell line growth inhibition, 48 h
Provide the reported GI50 of each item.

Problem: Tell me reported GI50 for C#CCOc1c(OC)cc(C(=O)/C(C)=C/c2cccc(N=[N+]=[N-])c2)cc1OC , tested with HOP-62 NSCLC.
Solution: 0.214 µM

Problem: Record O=C(Nc1cccc(-n2cc(-c3ccncc3)c(-c3ccc(O)c(Cl)c3)n2)c1)Nc1ccc(Cl)c(C(F)(F)F)c1 : what is its GI50 with HOP-62 NSCLC?
Solution: 3.15 µM

Problem: I'm curious: which GI50 was measured for O=C(Nc1cccc2ccccc12)c1cc2ccccc2cc1O tested on HOP-62 NSCLC?
Solution: 3.25 µM

Problem: State its GI50 on HOP-62 NSCLC: C[C@H]1[C@H](C)CC[C@]2(C(=O)O)CC[C@]3(C)C(=CC[C@@H]4[C@@]5(C)CC[C@H](OC(=O)/C=C\c6ccc(O)cc6)C(C)(C)[C@@H]5CC[C@]43C)[C@H]12
Solution: 2.26 µM

Problem: HOP-62 NSCLC / GI50 / COc1ccc(C2SC(C)C(=O)N2NC(=O)C(O)c2ccccc2)cc1 (stereo unspecified) : value?
Solution: > 100 µM

Problem: # returns recorded GI50 (system: HOP-62 NSCLC) for Cc1cccc2c(=O)c3c(sc12)c(NCCN)nc1ccccc13
Solution: 0.728 µM

###

# System: NCI-H460 lung
# Experiment: NCI tumour cell line growth inhibition, 48 h
Measurement type: TGI

Problem: Entry under review: COc1cc([C@@H]2c3cc4c(cc3[C@@H](NC(=O)c3ccc([N+](=O)[O-])cc3)C3COC(=O)[C@@H]32)OCO4)cc(OC)c1O (some centres undefined) . Reported TGI?
Solution: 2.38 µM

Problem: # TGI lookup, item COc1cc2c(cc1C)NC(=O)/C2=C/c1c(C)nc2sc(C)cn12
Solution: > 100 µM

Problem: Item under review: O=C(CCc1cc(-c2ccco2)n(-c2ccc([N+](=O)[O-])cc2[N+](=O)[O-])n1)Nc1ccccc1 . Reported TGI?
Solution: > 100 µM

Problem: Quick one: TGI of CN(C)C1COC2Cc3ccccc3C1O2 (centres undefined) ?
Solution: > 100 µM

###

# Tested on: MDA-N
# Experiment: NCI tumour cell line growth inhibition, 48 h
Field: TGI. Provide a value for each of the compounds that follow.

Problem: Bench note: what TGI did CC1(CC(=O)OC(C#C[Si](C)(C)C)Cc2ccccc2)OCCO1 (stereo not drawn) show?
Solution: > 100 µM

Problem: Could you share which TGI value was measured for O=C1CCC2(c3ccc(F)cc3)Nc3ncncc3N12 (stereo not drawn) ?
Solution: > 10 µM

Problem: Field request: TGI | item: O=C1[C@H](c2ccccc2)C2c3ccccc3CCN12 (stereo partly drawn)
Solution: > 100 µM

###

Consider the following compounds; for each one, report its TGI.
# System: MDA-N
# Experiment: NCI tumour cell line growth inhibition, 48 h

Problem: Using the record for NS(=O)(=O)c1ccc(NCc2cnc3ccccc3c2)cc1 , report its TGI.
Solution: > 100 µM

Problem: Looking for the measured TGI of Cc1ccc(OCCn2cc(Nc3ccccc3)c(=O)[nH]c2=O)cc1 , can you help?
Solution: > 100 µM

Problem: Returns the measured TGI for the input compound. Input: O=C(Nc1ccc(F)cc1)c1cc2ccc(O)cc2oc1=Nc1cccc(F)c1
Solution: > 100 µM

###

# Test system: CCRF-CEM leukemia
# Experiment: NCI tumour cell line growth inhibition, 48 h; in the data active = GI50 below about 0.43 µM; inactive = the rest
Return exactly one item of active, inactive

Problem: Look up the recorded call for Cn1cc(C2=C(c3cccc(NCC(O)CO)c3)C(=O)NC2=O)c2cc(Cl)ccc21 (stereo not given) in this test.
Solution: inactive

Problem: Short answer needed: outcome of this test for C(#Cc1ccccc1C#Cc1ccccn1)c1ccc(OCCCCCCOc2ccc(C#Cc3ccccc3C#Cc3ccccn3)cc2)cc1 ?
Solution: active

Problem: Assay result, entry O=C(Nc1ncc(Cc2ccc(Cl)cc2)s1)c1ccc2c(c1)OCCO2 — outcome?
Solution: active

Problem: Field: outcome | Entry: CSc1ccc2c(c1)C(=O)c1c-2n(CCCN=[N+]=[N-])c(=O)c2cc([N+](=O)[O-])ccc12
Solution: active

Problem: What did this assay record as the result for O=C1[C@H](c2ccccc2)C2c3ccccc3CCN12 (stereo not given in full) ?
Solution: inactive

Problem: Identify the outcome logged in this assay for the compound shown: O=C(O)c1cn(C2CC2)c2cc(N3CCN(C(=O)Nc4nc(-c5ccc(Cl)cc5)cs4)CC3)c(F)cc2c1=O
Solution: inactive

Problem: How was COc1ccc2c(c1)N(CCO)C1=C(C(=O)OC1)C2c1cccc(Br)c1 (stereo not given) classified in this test?
Solution: active

Problem: What did the test return for COC(=O)/C(Br)=C/c1c[nH]c2ccc(Br)cc12 ?
Solution: inactive

Problem: // outcome(item) with item = COc1ccc(/C=C2\CCCC3=C2N=C2SC=NN2C3c2ccc(OC)c(OC)c2)cc1OC (stereo not given)
Solution: inactive

Problem: Could you please tell me the result logged for CCOCC[P+](c1ccccc1)(c1ccccc1)c1ccccc1 in this assay?
Solution: inactive

###

# Test system: OVCAR-3 ovarian
# Experiment: NCI tumour cell line growth inhibition, 48 h
Record form. Attribute: TGI. Fill in for each entry.

Problem: Lookup: TGI / OVCAR-3 ovarian / N#C/C(N)=C(\C#N)N=CNc1ccccc1N
Solution: > 100 µM

Problem: Which measured TGI belongs to C[C@]12CCC(=O)C=C1CC[C@@H]1[C@@H]2CC[C@]2(C)C(=O)/C(=C\c3ccccc3)C[C@@H]12 , tested on OVCAR-3 ovarian?
Solution: > 77.1 µM

Problem: State its TGI on OVCAR-3 ovarian: C/C(CC(=O)Nc1ccc([N+](=O)[O-])cc1)=N/N=C(N)N
Solution: > 100 µM

###

# Tested on: NCI/ADR-RES ovarian
# Experiment: NCI tumour cell line growth inhibition, 48 h
For each of the compounds below, state its TGI.
Report the value in µM with no unit label.

Problem: Value wanted: TGI (NCI/ADR-RES ovarian) of entry Nc1nc(Cl)cc(NCC2(CO)CC(Cc3ccccc3)C2)n1 (centres undefined)
Solution: 65.5

Problem: Lab note: need TGI with NCI/ADR-RES ovarian for entry O=C(Nc1ncc(Cc2ccc(Cl)cc2)s1)c1ccc2c(c1)OCCO2 , please look it up.
Solution: 5.58

Problem: Recorded TGI for CCN1CCN(Cc2ccc3cc(C(=O)Nc4cc(NC(=O)c5ccc6c(c5)OCCO6)ccc4F)ccc3n2)CC1 with NCI/ADR-RES ovarian, please?
Solution: 9.55

Problem: Look up TGI with NCI/ADR-RES ovarian for this compound: CCN(CC)CCCC(C)Nc1ccnc2cc(Cl)c(SCc3ccccc3)cc12 (centres undefined)
Solution: 3.17

###

# System: OVCAR-4 ovarian
# Experiment: NCI tumour cell line growth inhibition, 48 h
Measurement type: TGI

Problem: For Cc1ccc(S(=O)(=O)C2=C3C(=C(c4ccccc4)c4ccccc43)CN(S(=O)(=O)c3ccc(C)cc3)C2)cc1 , what is its reported TGI?
Solution: 72.9 µM

Problem: # TGI lookup, item COC(=O)[C@]1(C)CCC[C@]2(C)C3CC4OOC3(C=C4C(C)C)CCC21 (stereo not given in full)
Solution: 45.7 µM

Problem: Fill in the blank: the reported TGI of O=C1/C(=C/c2cccc([N+](=O)[O-])c2)N=C(c2ccccc2)N1c1ccc2c(c1)Sc1cc(N3C(=O)/C(=C/c4cccc([N+](=O)[O-])c4)N=C3c3ccccc3)ccc1N2 is ____.
Solution: 34.5 µM

Problem: Given the compound COc1cc([C@@H]2c3cc4c(cc3[C@@H](NC(=O)c3ccc([N+](=O)[O-])cc3)C3COC(=O)[C@@H]32)OCO4)cc(OC)c1O (stereo not given in full) , what is its reported TGI?
Solution: > 100 µM

Problem: So what's the measured TGI for this one? CC1(C)CC[C@]2(C(=O)O)CC[C@]3(C)C(=CC[C@@H]4[C@@]5(C)CC[C@@H]6OC(C)(C)OC[C@@]6(C)[C@@H]5CC[C@]43C)[C@H]2C1
Solution: > 100 µM

Problem: Value lookup for TGI; key = CC1(CC(=O)OC(C#C[Si](C)(C)C)Cc2ccccc2)OCCO1 (stereo not given)
Solution: > 100 µM

Problem: TGI for Cc1cc(NC(=O)C(=O)Cc2nc3ccccc3s2)ccc1Cl ?
Solution: > 100 µM

Problem: Sample FC(F)(F)c1ccccc1C=NC12CC3CC(CC(C3)C1)C2 — what was its TGI?
Solution: > 100 µM

Problem: Which value of TGI has been reported for C(#Cc1ccccc1C#Cc1ccccn1)c1ccc(OCCCCCCOc2ccc(C#Cc3ccccc3C#Cc3ccccn3)cc2)cc1 in the records?
Solution: 11.5 µM

Problem: Form field: reported TGI of C=C1C(=O)O[C@H]2[C@H]3O[C@@H](C[C@@H]12)[C@](C)(O)CCCC(C)=CCC[C@H]3C
Solution: 39 µM

Problem: Reported TGI for COc1cc2c(cc1OC)C(=O)/C(=C/c1ccccc1)C2 : what is it?
Solution: > 100 µM

Problem: What does the record list as TGI for COC(=O)C1CCc2nnc(-c3cccnc3)n21 (stereo not given) ?
Solution: > 100 µM

Problem: Fill blank: measured TGI of the compound O=C(O)C#Cc1ccc([N+](=O)[O-])cc1 is ____.
Solution: > 100 µM

Problem: Reported TGI, compound COc1ccc(C2S/C(=C\c3cccc([N+](=O)[O-])c3)C(=O)N2NC(=O)Cc2ccccc2)cc1 (stereo not given) : ____
Solution: > 100 µM

Problem: // query TGI value for entry O=C(Cc1nc2ccccc2s1)NC12CC3CC(CC(C3)C1)C2
Solution: > 100 µM

Problem: Given COc1ccc2c(c1)c(=O)oc1cc(OC/C(=N\O)c3ccc(F)cc3)ccc12 , state its recorded TGI.
Solution: 44.5 µM

Problem: Entry Cn1c(-c2ccccc2)c/c(=N\NS(C)(=O)=O)c2cc(S(=O)(=O)O)ccc21 has what TGI?
Solution: > 100 µM

Problem: I have this compound here, O=C(CCc1cc(-c2ccco2)n(-c2ccc([N+](=O)[O-])cc2[N+](=O)[O-])n1)Nc1ccccc1 , and I need its recorded TGI.
Solution: > 100 µM

Problem: Which TGI reading was recorded for the compound CC1=C(C(=O)Nc2ccc(Cl)c(Cl)c2)C(c2cccc(O)c2)NC(=S)N1 (stereo not given) ?
Solution: > 50 µM

Problem: Which measured TGI value corresponds to O=c1[nH]c(C2CCCCC2)nc2cc(Cl)ccc12 ?
Solution: > 100 µM
